# Test system: HL-60(TB) leukemia
# PROTOCOL TEXT: NCI-60 one-dose screen, 48 h
# STUDY CONDITIONS: 10 µM unless noted
Compounds without any hit were thinned out: in the full panel of roughly 83,000, 20% have a hit. The source made the active and inactive calls. How the source made its calls: active means growth percent below 10; inactive means the rest.
In this exercise, the only acceptable responses are Y for active, N for inactive

Below are worked cases with known answers.
• NC(=O)c1cc2c3ccccc3ccn2c1-c1ccccc1 = Y
• Cc1cccc(Cc2cnc(NC(=O)c3ccc4nnsc4c3)s2)c1 = N
• CCSc1nnc(NC(=O)COc2ccc(Cl)cc2C)s1 = N

Dear all, I need the recorded test outcome for Cc1c(C(=O)NC(Cc2ccccc2)C(O)C(=O)NCc2ccc(F)cc2)[nH]c2ccccc2c1=O (stereo not given) , thank you.
N

Dear all, I need the recorded test outcome for COC(=O)Nc1nc2ccc(Sc3ccccc3)cc2[nH]1 , thank you.
Y

Dear all, I need the recorded test outcome for COC(=O)CC[C@H](C)[C@H]1CC[C@H]2[C@@H]3CC[C@@H]4CC5(CC[C@]4(C)[C@H]3CC(=O)[C@]12C)Nc1ccccc1NC5=NC(C)(C)C (stereo not given in full) , thank you.
N

Dear all, I need the recorded test outcome for C#CCn1cc(C=C2C(=O)NC(=S)NC2=O)c2cc(Cl)ccc21 , thank you.
Y

Data provenance is PubChem BioAssay (NCI).
